System: NCI-H1355
assayDetails: relative viability (nuclei count vs DMSO), 5 days (fraction); higher = more cells survive
conditionSet: first compound 0.03162 µM
// relative viability lookup, one value per entry
Reply with the value as a number alone.

CC(C)Oc1cc(Nc2nc(N[C@@H](C)c3ccc(F)cn3)ncc2Cl)n[nH]1 [AZ23] + Nc1nc2[nH]cc(CCc3ccc(C(=O)N[C@@H](CCC(=O)O)C(=O)O)cc3)c2c(=O)[nH]1 [Pemetrexed] (partner 0.2 µM)    1.11
CC(C)Oc1cc(Nc2nc(N[C@@H](C)c3ccc(F)cn3)ncc2Cl)n[nH]1 [AZ23] + CC(=O)c1c(C)c2cnc(Nc3ccc(N4CCNCC4)cn3)nc2n(C2CCCC2)c1=O [Palbociclib] (partner 0.5 µM)    0.455
CC(C)Oc1cc(Nc2nc(N[C@@H](C)c3ccc(F)cn3)ncc2Cl)n[nH]1 [AZ23] + C[C@@H](Oc1cc(-c2cnn(C3CCNCC3)c2)cnc1N)c1c(Cl)ccc(F)c1Cl [Crizotinib] (partner 1 µM)    1.11
CC(C)Oc1cc(Nc2nc(N[C@@H](C)c3ccc(F)cn3)ncc2Cl)n[nH]1 [AZ23] + CC(=O)Nc1cccc(-n2c(=O)n(C3CC3)c(=O)c3c(Nc4ccc(I)cc4F)n(C)c(=O)c(C)c32)c1 [Trametinib] (partner 0.02 µM)    0.417

Lab note: next compound to report on.
Q: Give relative viability for CC(C)Oc1cc(Nc2nc(N[C@@H](C)c3ccc(F)cn3)ncc2Cl)n[nH]1 [AZ23] + Cc1nc(NC(=O)N2CCC[C@H]2C(N)=O)sc1-c1ccnc(C(C)(C)C(F)(F)F)c1 [Alpelisib] (partner 2 µM)
A: 0.873

---

// relative viability lookup, one value per entry
System: PC-14
assayDetails: relative viability (nuclei count vs DMSO), 5 days (fraction); higher = more cells survive
conditionSet: first compound 0.04 µM
Reply with the value as a number alone.

Reference set (6 entries):
C[C@@H]1CN(CC(=O)Nc2ccc3c(c2)Cc2cccc(-c4cc(=O)cc(N5CCOCC5)o4)c2S3)C[C@H](C)O1 + COc1cccc2cc(-c3nc([C@H]4CC[C@H](C(=O)O)CC4)n4ncnc(N)c34)[nH]c12 [OSI-027] (partner 0.5 µM)    1.02
C[C@@H]1CN(CC(=O)Nc2ccc3c(c2)Cc2cccc(-c4cc(=O)cc(N5CCOCC5)o4)c2S3)C[C@H](C)O1 + Nc1nc2[nH]cc(CCc3ccc(C(=O)N[C@@H](CCC(=O)O)C(=O)O)cc3)c2c(=O)[nH]1 [Pemetrexed] (partner 0.2 µM)    0.119
C[C@@H]1CN(CC(=O)Nc2ccc3c(c2)Cc2cccc(-c4cc(=O)cc(N5CCOCC5)o4)c2S3)C[C@H](C)O1 + NC(=O)Nc1cc(-c2cccc(F)c2)sc1C(=O)N[C@H]1CCCNC1 [AZD7762] (partner 0.2 µM)    0.289
COc1cc(N2CCC(C(N)=O)CC2)ccc1Nc1nc(N)c(Cl)c(Nc2ccccc2S(=O)(=O)C(C)C)n1 [HG-5-88-01] + O=C(c1cc(Cc2n[nH]c(=O)c3ccccc23)ccc1F)N1CCN(C(=O)C2CC2)CC1 [Olaparib] (partner 8 µM)    0.257
C[C@@H]1CN(CC(=O)Nc2ccc3c(c2)Cc2cccc(-c4cc(=O)cc(N5CCOCC5)o4)c2S3)C[C@H](C)O1 + COc1cc2c(Oc3ccc(NC(=O)C4(C(=O)Nc5ccc(F)cc5)CC4)cc3F)ccnc2cc1OCCCN1CCOCC1 [Foretinib] (partner 0.25 µM)    0.94
C[C@@H]1CN(CC(=O)Nc2ccc3c(c2)Cc2cccc(-c4cc(=O)cc(N5CCOCC5)o4)c2S3)C[C@H](C)O1 + Nc1ncn([C@H]2C[C@H](O)[C@@H](CO)O2)c(=O)n1 [Decitabine] (partner 2 µM)    0.235

Q: Give relative viability for Clc1ccc(Nc2nnc(Cc3ccncc3)c3ccccc23)cc1 [Vatalanib] + Nc1ncn([C@H]2C[C@H](O)[C@@H](CO)O2)c(=O)n1 [Decitabine] (partner 2 µM)
A: 0.231

Q: Give relative viability for COc1cc(N2CCC(C(N)=O)CC2)ccc1Nc1nc(N)c(Cl)c(Nc2ccccc2S(=O)(=O)C(C)C)n1 [HG-5-88-01] + CS(=O)(=O)CCNCc1ccc(-c2ccc3ncnc(Nc4ccc(OCc5cccc(F)c5)c(Cl)c4)c3c2)o1 [Lapatinib] (partner 2 µM)
A: 0.358
